# Tested on: TK-10 renal
# experiment.description: NCI-60 one-dose screen, 48 h
# condition.details: 10 µM unless noted
About 83,000 compounds went through this panel and 20% of them were active in at least one assay; those are over-represented in the sample as a whole. Calls of active or inactive are those of the source. The calls were made as follows: active = growth percent below 10; inactive = the rest.
# output must be one of active, inactive

Solved entries (count: 2):
compound=COc1cc(C(=O)/C=C/c2ccc(N3CCN(C)CC3)cc2)cc(OC)c1OC target_system="TK-10 renal" assigned_category=inactive
compound=COc1ccc(/C=C/C(=O)c2cc3c(N)c(C(=O)Nc4ccccc4C)sc3nc2C)cc1 target_system="TK-10 renal" assigned_category=inactive

Can you look up the reported call for `COc1cc(C#Cc2ccc(=O)oc2C#Cc2ccccc2)cc(OC)c1OC` for me?
inactive

Entry `O=C(O)CCCn1c(SCc2c(Cl)cccc2Cl)nc2ccsc2c1=O` please
inactive

----------
# Tested on: SF-295 CNS
# experiment.description: NCI-60 one-dose screen, 48 h
# condition.details: 10 µM unless noted
Compounds without any hit were thinned out: in the full panel of roughly 83,000, 20% have a hit. Calls of active or inactive are those of the source. Rule for the calls: active = growth percent below 10; inactive = the rest.
# output must be one of active, inactive

compound=CCOC(=O)NN1CC(O)=C(c2nc(-c3ccc(Br)cc3)cs2)C1=N target_system="SF-295 CNS" assigned_category=inactive
compound=C(/C=C/c1ccccc1)=Nc1ccc(CCc2ccc(N=C/C=C/c3ccccc3)cc2)cc1 target_system="SF-295 CNS" assigned_category=inactive
compound=COc1cc(C(=O)/C=C/c2c(-c3cccs3)nc3ccccn23)cc(OC)c1OC target_system="SF-295 CNS" assigned_category=active
compound=CCN(CC)CCOc1ccc(Nc2ncc3cc(-c4ccc(O)cc4)c(=O)n(C)c3n2)cc1 target_system="SF-295 CNS" assigned_category=inactive
compound="O=C1Nc2ccccc2C2c3cccn3-c3ccccc3N12 (stereo not given)" target_system="SF-295 CNS" assigned_category=inactive
compound=CCOc1ccc(/C=N\N=C\c2ccc(OCC)cc2)cc1 target_system="SF-295 CNS" assigned_category=inactive
compound=Cc1cc2nc3c4ccccc4n(CCN(C)C)c3nc2cc1C target_system="SF-295 CNS" assigned_category=inactive
compound="CC1CN=C(c2cccc(-c3ccc(-c4ccccc4)o3)c2)N1 (stereo not given)" target_system="SF-295 CNS" assigned_category=active

Can you look up the reported call for `CN1CCN(CCOc2ccc(-c3cnc4c(-c5ccc(C(F)(F)F)cc5)cnn4c3)cc2)CC1` for me?
inactive

Entry `COC(=O)c1ccc2c(c1)c1c(C)c3ccncc3c(C)c1n2C` please
inactive

----------
# Test system: KM12 colon
# experiment.description: NCI-60 one-dose screen, 48 h (100 = growth as untreated, 0 = no growth, -100 = all killed)
# condition.details: 10 µM unless noted
This is part of a sample that, as a whole, favours compounds with a hit. Of some 83,000 tested, about 20% had one in any assay.
Classify by measured growth: MET if it is equal to or exceeds 70%, NOT MET if it is smaller.

compound=Cc1cc(C)cc(Nc2ccc([N+](=O)[O-])c(NCCN3CCOCC3)n2)c1 assigned_category="NOT MET"

Evaluate `CCn1c2ccc(O)cc2c2c(C)c3c[n+](C(C)C)ccc3c(C)c21` : growth at minimum 70%?
NOT MET

Entry CC(CN)[C@@H]1CC[C@]2(CO)CC[C@]3(C)[C@H](CC[C@@H]4[C@@]5(C)CCC(N)C(C)(C)[C@@H]5CC[C@]43C)[C@@H]12 (some centres not stated) please
NOT MET

Entry `Cc1ccc(-c2nc(C#N)c(S(=O)(=O)NCCO)o2)cc1` please
MET

Entry CC(C(=O)O)n1c(O)c(C=Nc2cccnc2)sc1=S (configuration not stated) please
MET

Entry COc1ccc(C(O)c2cc3c(N)c(C(=O)Nc4cccc(Cl)c4)sc3nc2C)cc1 (configuration not stated) please
NOT MET

Entry `C[C@H]1[C@H](C)CC[C@]2(C(=O)O)CC[C@]3(C)C(=CC[C@@H]4[C@@]5(C)C[C@@H](Cc6cn([C@@H]7O[C@H](CO)[C@@H](O)[C@H](O)[C@H]7O)nn6)[C@H](O)C(C)(C)[C@@H]5CC[C@]43C)[C@H]12` please
MET

Entry `COc1ccc2nc3cc(Cl)ccc3c(NCCN)c2c1` please
NOT MET

Entry `CC(C)C[C@@H](C(=O)N[C@H](C(=O)OC1CCCC1)c1ccccc1)[C@H](O)C(=O)NO` please
NOT MET

Entry `CC(C)c1ccc(NC(=O)Nc2ccc(NC(=O)c3ccccc3N)cc2)cc1` please
NOT MET

Entry `CCCNc1nc2ccccc2c2c(=O)c3cccc(Cl)c3sc12` please
MET

Entry `C=C1C(=O)O[C@H]2[C@H]1CC/C(COC(=O)/C=C\C(=O)NCc1ccc(Cn3c(=O)sn(-c4ccccc4)c3=O)cc1)=C\CC[C@@]1(C)O[C@@H]21` please
MET

Entry `c1ccc2cc(Cn3c[n+](Cc4ccc5ccccc5c4)c4ccccc43)ccc2c1` please
NOT MET

Entry O=C(/C=C/C12c3ccccc3C(c3ccccc31)C1C(=O)NC(=O)C12)c1ccc(F)cc1 (configuration not stated) please
NOT MET

Entry `CCCCCCCCNc1cc2c3c(c1)CCCN3CCC2` please
NOT MET
